# system: Programmed Death 1 (PD-1) (UniProt Q15116 25-167, limits assumed)
# Sequence (Q15116 25-167 limits assumed): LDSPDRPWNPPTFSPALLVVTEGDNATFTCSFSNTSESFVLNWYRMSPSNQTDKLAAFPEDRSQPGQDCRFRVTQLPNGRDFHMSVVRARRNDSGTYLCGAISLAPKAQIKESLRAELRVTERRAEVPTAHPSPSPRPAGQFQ
# test_method_notes: rank among the 16 humanized clones by FACS binding data
quantity_kind: Ranking FACS data

BAP049-hum05 (antibody, human IgG4 S228P, kappa, V domains shown, Humanized mAb) VH: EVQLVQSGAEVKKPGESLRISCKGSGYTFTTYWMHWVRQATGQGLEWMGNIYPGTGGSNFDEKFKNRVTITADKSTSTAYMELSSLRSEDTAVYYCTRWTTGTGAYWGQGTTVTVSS VL: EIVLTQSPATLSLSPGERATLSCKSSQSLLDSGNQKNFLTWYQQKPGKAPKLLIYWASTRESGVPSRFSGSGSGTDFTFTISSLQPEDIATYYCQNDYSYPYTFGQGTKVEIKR	5 rank
BAP049-hum12 (antibody, human IgG4 S228P, kappa, V domains shown, also called clone 12) VH: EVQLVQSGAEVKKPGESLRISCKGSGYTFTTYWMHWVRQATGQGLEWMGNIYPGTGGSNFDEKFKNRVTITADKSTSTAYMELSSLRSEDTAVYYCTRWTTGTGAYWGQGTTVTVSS VL: DIQMTQSPSSLSASVGDRVTITCKSSQSLLDSGNQKNFLTWYLQKPGQSPQLLIYWASTRESGVPSRFSGSGSGTDFTFTISSLEAEDAATYYCQNDYSYPYTFGQGTKVEIKR	3 rank
BAP049-hum03 (antibody, human IgG4 S228P, kappa, V domains shown, also called clone 3) VH: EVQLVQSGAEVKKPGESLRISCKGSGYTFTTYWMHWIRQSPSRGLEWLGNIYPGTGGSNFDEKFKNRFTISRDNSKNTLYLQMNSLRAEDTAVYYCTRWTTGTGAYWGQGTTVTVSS VL: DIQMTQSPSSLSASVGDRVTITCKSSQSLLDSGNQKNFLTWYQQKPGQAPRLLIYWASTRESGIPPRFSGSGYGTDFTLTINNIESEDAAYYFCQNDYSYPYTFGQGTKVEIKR	7 rank
